Give MIC for every item shown.
System: Bacillus subtilis
testProtocol: Antibacterial activity against Bacillus subtilis ATCC 6633 assessed as inhibition of bacterial growth measured after 24 hrs by MH broth based assay
Assay type: functional

Value of MIC reported for the compound C=C[C@]1(C)C[C@@H](OC(=O)CSc2cc[n+](Cc3ccc(-c4ccccc4C#N)cc3)cc2)[C@]2(C)[C@H](C)CC[C@]3(CCC(=O)[C@H]32)[C@@H](C)[C@@H]1O.[I-] is 32 µg/mL

The measured MIC associated with C=C[C@]1(C)C[C@@H](OC(=O)CSc2cc[n+](CCCC)cc2)[C@]2(C)[C@H](C)CC[C@]3(CCC(=O)[C@H]32)[C@@H](C)[C@@H]1O.[I-] reads 64 µg/mL

MIC reported for this compound C=CC[n+]1ccc(SCC(=O)O[C@@H]2C[C@@](C)(C=C)[C@@H](O)[C@H](C)[C@]34CCC(=O)[C@H]3[C@@]2(C)[C@H](C)CC4)cc1.[I-] : 64 µg/mL

Record C=C[C@]1(C)C[C@@H](OC(=O)CSc2cc[n+](CC(=O)N3CCS(=O)(=O)CC3)cc2)[C@]2(C)[C@H](C)CC[C@]3(CCC(=O)[C@H]32)[C@@H](C)[C@@H]1O.[I-] . Reported MIC: > 64 µg/mL

# MIC of C=C[C@]1(C)C[C@@H](OC(=O)CSc2cc[n+](CC(=O)N3CCCC3)cc2)[C@]2(C)[C@H](C)CC[C@]3(CCC(=O)[C@H]32)[C@@H](C)[C@@H]1O.[I-] = > 64 µg/mL

====

Test system: Staphylococcus aureus
testProtocol: Antibacterial activity against methicillin-resistant Staphylococcus aureus ATCC 43300 assessed as inhibition of bacterial growth measured after 24 hrs by MH broth based assay
Type: functional
endpoint: MIC (µg/mL)
Could you give me the number in µg/mL? Just the number is fine.

Value of MIC reported for the molecule C=C[C@]1(C)C[C@@H](OC(=O)CSc2cc[n+](CC#CC)cc2)[C@]2(C)[C@H](C)CC[C@]3(CCC(=O)[C@H]32)[C@@H](C)[C@@H]1O.[I-] is 0.25

Entry under test: C=C[C@]1(C)C[C@@H](OC(=O)CSc2cc[n+](CCCC)cc2)[C@]2(C)[C@H](C)CC[C@]3(CCC(=O)[C@H]32)[C@@H](C)[C@@H]1O.[Br-] . Its MIC was 0.25

Note to self: MIC recorded for C=C[C@]1(C)C[C@@H](OC(=O)CSc2cc[n+](Cc3ccc(C)cc3)cc2)[C@]2(C)[C@H](C)CC[C@]3(CCC(=O)[C@H]32)[C@@H](C)[C@@H]1O.[I-] was 0.5

So, C=C[C@]1(C)C[C@@H](OC(=O)CSc2cc[n+](CCCCCCCCCC(=O)O)cc2)[C@]2(C)[C@H](C)CC[C@]3(CCC(=O)[C@H]32)[C@@H](C)[C@@H]1O.[I-] ? Its MIC was 4

Sample C=C[C@]1(C)C[C@@H](OC(=O)CSc2cc[n+](Cc3ccc(OC)cc3)cc2)[C@]2(C)[C@H](C)CC[C@]3(CCC(=O)[C@H]32)[C@@H](C)[C@@H]1O.[I-] ; MIC observed: 0.125

====

Test system: Proteus
testProtocol: Antibacterial activity against Proteus CMCC (B) 49027 assessed as inhibition of bacterial growth measured after 24 hrs by MH broth based assay
Format: functional
For each of the molecules below, state its MIC.

Sure, the documented MIC for C=C[C@]1(C)C[C@@H](OC(=O)CSc2cc[n+](CC(=O)N3CCC(CO)CC3)cc2)[C@]2(C)[C@H](C)CC[C@]3(CCC(=O)[C@H]32)[C@@H](C)[C@@H]1O.[I-] is > 64 µg/mL

get_value(item= C=C[C@]1(C)C[C@@H](OC(=O)CSc2cc[n+](CCCC)cc2)[C@]2(C)[C@H](C)CC[C@]3(CCC(=O)[C@H]32)[C@@H](C)[C@@H]1O.[I-] , readout=MIC) returns > 64 µg/mL

molecule C=C[C@]1(C)C[C@@H](OC(=O)CSc2cc[n+](CC(=O)NC3CCCC3)cc2)[C@]2(C)[C@H](C)CC[C@]3(CCC(=O)[C@H]32)[C@@H](C)[C@@H]1O.[I-] , MIC observed: > 64 µg/mL

Notebook: C=C[C@]1(C)C[C@@H](OC(=O)CSc2cc[n+](CC#CC)cc2)[C@]2(C)[C@H](C)CC[C@]3(CCC(=O)[C@H]32)[C@@H](C)[C@@H]1O.[I-] , MIC read as > 64 µg/mL

// sample C=CC[n+]1ccc(SCC(=O)O[C@@H]2C[C@@](C)(C=C)[C@@H](O)[C@H](C)[C@]34CCC(=O)[C@H]3[C@@]2(C)[C@H](C)CC4)cc1.[I-] , its MIC was > 64 µg/mL

Lab book: MIC of C=CCC[n+]1ccc(SCC(=O)O[C@@H]2C[C@@](C)(C=C)[C@@H](O)[C@H](C)[C@]34CCC(=O)[C@H]3[C@@]2(C)[C@H](C)CC4)cc1.[I-] noted as 64 µg/mL
